System: bEnd3 cells
Test: Uptake test: cellular interaction (acid wash) and internalization (lysate)
Assay type: cell-based
Details: GaCl3; 0.25 hours
# key: entry, value: Cellular interaction
measure: Cellular interaction (%)

> print(dat)
                                  substance  experimental.result
1  VQQLTKRFSL (Dengue virus 2; /note=“#PepH1”)                 0.25
2                    KLFMALVAFLRFLT [PepH2]                 0.77
3           KSKAINVLRGFRKEIGRMLNILN [PepH4]                 4.06
4  AGILKRW (Dengue virus 2; /note=“#PepH3 (PEP+)”)                 0.26

----------
Experiment: Biodistribution of technetium-labelled peptides
Format: in vivo, CD1 mice
Settings: mouse, heart, 10 ug, total radioactivity; CD1 mice, iv; 5 min; 10 μg; read-out: injected activity in Heart
Residues, ends and D or L forms follow the SMILES beside them. *: point of attachment. X1 = Cc1nn(CCN(CCN)CCCC(=O)*)c(C)c1CC(=O)O
# key: entry, value: tissue uptake at 5 min

molecule	value-units	tissue uptake at 5 min
CC[C@H](C)[C@H](NC(=O)CNC(=O)[C@H](C)NC(=O)CCCN(CCN)CCn1nc(C)c(CC(=O)O)c1C)C(=O)N[C@@H](CC(C)C)C(=O)N[C@@H](CCCCN)C(=O)N[C@@H](CCCNC(=N)N)C(=O)N[C@@H](Cc1c[nH]c2ccccc12)C(=O)O [^99mTc(CO)3-Pz^1-pepH3, metal not drawn] (X1-AGILKRW-OH; C-terminus assumed)	%ID/g	1.5
Cc1nn(CCN(CCN)CCCC(=O)N[C@H](C(=O)N[C@@H](CCC(N)=O)C(=O)N[C@@H](CCC(N)=O)C(=O)N[C@@H](CC(C)C)C(=O)N[C@H](C(=O)N[C@@H](CCCCN)C(=O)N[C@@H](CCCNC(=N)N)C(=O)N[C@@H](Cc2ccccc2)C(=O)N[C@@H](CO)C(=O)N[C@@H](CC(C)C)C(=O)O)[C@@H](C)O)C(C)C)c(C)c1CC(=O)O [^99mTc(CO)3-Pz^1-pepH1, metal not drawn] (X1-VQQLTKRFSL-OH; C-terminus assumed)	%ID/g	1.1

----------
Test system: bEnd3 cells
Test: Uptake test: cellular interaction (acid wash) and internalization (lysate)
Type: cell-based
Conditions: GaCl3; 5 hours
measure: Internalization (%)

> print(dat)
                                  substance  value.units  experimental.result
1  AGILKRW (Dengue virus 2; /note=“#PepH3 (PEP+)”)            %                 0.12
2  VQQLTKRFSL (Dengue virus 2; /note=“#PepH1”)            %                 0.10
3           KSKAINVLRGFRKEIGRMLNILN [PepH4]            %                 0.78
4                    KLFMALVAFLRFLT [PepH2]            %                 6.97

----------
Experiment: Biodistribution of technetium-labelled peptides
Assay type: in vivo, CD1 mice
Details: CD1, bone, iv, 140 ug/mouse, total radioactivity; 140 μg/mouse; 2 min; read-out: injected activity in Bone
Residues, ends and D or L forms follow the SMILES beside them. *: point of attachment. X1 = Cc1nn(CCN(CCN)CCCC(=O)*)c(C)c1CC(=O)O
measure: tissue uptake at 2 min (%ID/g)

compound	measure	experimental-result
Cc1nn(CCN(CCN)CCCC(=O)N[C@H](C(=O)N[C@@H](CCC(N)=O)C(=O)N[C@@H](CCC(N)=O)C(=O)N[C@@H](CC(C)C)C(=O)N[C@H](C(=O)N[C@@H](CCCCN)C(=O)N[C@@H](CCCNC(=N)N)C(=O)N[C@@H](Cc2ccccc2)C(=O)N[C@@H](CO)C(=O)N[C@@H](CC(C)C)C(=O)O)[C@@H](C)O)C(C)C)c(C)c1CC(=O)O [^99mTc(CO)3-Pz^1-pepH1, metal not drawn] (X1-VQQLTKRFSL-OH; C-terminus assumed)	tissue uptake at 2 min	0.6
CC[C@H](C)[C@H](NC(=O)CNC(=O)[C@H](C)NC(=O)CCCN(CCN)CCn1nc(C)c(CC(=O)O)c1C)C(=O)N[C@@H](CC(C)C)C(=O)N[C@@H](CCCCN)C(=O)N[C@@H](CCCNC(=N)N)C(=O)N[C@@H](Cc1c[nH]c2ccccc12)C(=O)O [^99mTc(CO)3-Pz^1-pepH3, metal not drawn] (X1-AGILKRW-OH; C-terminus assumed)	tissue uptake at 2 min	1.89

----------
Experiment: Features of peptides: isoelectric point, charge
Assay type: physicochemical
Details: original peptide
measure: PI (isoelectric point)

> print(dat)
                                  substance                 measure  experimental.result
1                    KLFMALVAFLRFLT [PepH2]  PI (isoelectric point)                   11
2  VQQLTKRFSL (Dengue virus 2; /note=“#PepH1”)  PI (isoelectric point)                   11
3  AGILKRW (Dengue virus 2; /note=“#PepH3 (PEP+)”)  PI (isoelectric point)                   11
4           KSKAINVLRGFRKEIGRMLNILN [PepH4]  PI (isoelectric point)                 11.7
5              LVAFLRFLTIPPTAGILKRW [PepM′]  PI (isoelectric point)                 12.0

----------
Assay: Biodistribution of technetium-labelled peptides
Type: in vivo, CD1 mice
Settings: CD1, in vivo, iv, 80 ug/mouse, total radioactivity; 80 μg/mouse; 1 hour; read-out: Excretion

compound	dose excreted at 1 h, %
CSCC[C@H](NC(=O)[C@H](Cc1ccccc1)NC(=O)[C@H](CC(C)C)NC(=O)[C@H](CCCCN)NC(=O)CCCN(CCN)CCn1nc(C)c(CC(=O)O)c1C)C(=O)N[C@@H](C)C(=O)N[C@@H](CC(C)C)C(=O)N[C@H](C(=O)N[C@@H](C)C(=O)N[C@@H](Cc1ccccc1)C(=O)N[C@@H](CC(C)C)C(=O)N[C@@H](CCCNC(=N)N)C(=O)N[C@@H](Cc1ccccc1)C(=O)N[C@@H](CC(C)C)C(=O)N[C@H](C(=O)O)[C@@H](C)O)C(C)C [^99mTc(CO)3-Pz^1-pepH2, metal not drawn]	12.7

----------
# key: entry, value: tissue uptake at 1 h
Test: Biodistribution of technetium-labelled peptides
Assay type: in vivo, CD1 mice
Conditions: mouse, bone, 10 ug, total radioactivity; CD1 mice, iv; 1 hour; 10 μg; read-out: injected activity in Bone
Residues, ends and D or L forms follow the SMILES beside them. *: point of attachment. X1 = Cc1nn(CCN(CCN)CCCC(=O)*)c(C)c1CC(=O)O
measure: tissue uptake at 1 h (%ID/g)

molecule	value-units	experimental-result
Cc1nn(CCN(CCN)CCCC(=O)N[C@H](C(=O)N[C@@H](CCC(N)=O)C(=O)N[C@@H](CCC(N)=O)C(=O)N[C@@H](CC(C)C)C(=O)N[C@H](C(=O)N[C@@H](CCCCN)C(=O)N[C@@H](CCCNC(=N)N)C(=O)N[C@@H](Cc2ccccc2)C(=O)N[C@@H](CO)C(=O)N[C@@H](CC(C)C)C(=O)O)[C@@H](C)O)C(C)C)c(C)c1CC(=O)O [^99mTc(CO)3-Pz^1-pepH1, metal not drawn] (X1-VQQLTKRFSL-OH; C-terminus assumed)	%ID/g	0.16
CC[C@H](C)[C@H](NC(=O)CNC(=O)[C@H](C)NC(=O)CCCN(CCN)CCn1nc(C)c(CC(=O)O)c1C)C(=O)N[C@@H](CC(C)C)C(=O)N[C@@H](CCCCN)C(=O)N[C@@H](CCCNC(=N)N)C(=O)N[C@@H](Cc1c[nH]c2ccccc12)C(=O)O [^99mTc(CO)3-Pz^1-pepH3, metal not drawn] (X1-AGILKRW-OH; C-terminus assumed)	%ID/g	0.26

----------
Assay: Biodistribution of technetium-labelled peptides
Format: in vivo, CD1 mice
Details: CD1, muscle, iv, 140 ug/mouse, total radioactivity; 140 μg/mouse; 1 hour; read-out: injected activity in Muscle
Method: To evaluate the capacity to cross the BBB in vivo, the selected peptides, pepH1 and pepH3, were analyzed for biodistribution in CD1 mice. The peptides were labelled with technetium at a final concentration of 8.5×10^−5 M and diluted in PBS. CD1 mice were injected (iv injection, tail vein). […] The tissues of interest were dissected and washed to remove excess blood, weighed, and measured for radioactivity. Technetium radioactivity of the different peptides was measured for different organs. […]
Residues, ends and D or L forms follow the SMILES beside them. *: point of attachment. X1 = Cc1nn(CCN(CCN)CCCC(=O)*)c(C)c1CC(=O)O
measure: tissue uptake at 1 h (%ID/g)

compound	measure	experimental-result
CC[C@H](C)[C@H](NC(=O)CNC(=O)[C@H](C)NC(=O)CCCN(CCN)CCn1nc(C)c(CC(=O)O)c1C)C(=O)N[C@@H](CC(C)C)C(=O)N[C@@H](CCCCN)C(=O)N[C@@H](CCCNC(=N)N)C(=O)N[C@@H](Cc1c[nH]c2ccccc12)C(=O)O [^99mTc(CO)3-Pz^1-pepH3, metal not drawn] (X1-AGILKRW-OH; C-terminus assumed)	tissue uptake at 1 h	0.2
